Tgt: Neuronal acetylcholine receptor subunit alpha-4 (Homo sapiens)
Sequence (P43681 whole entry): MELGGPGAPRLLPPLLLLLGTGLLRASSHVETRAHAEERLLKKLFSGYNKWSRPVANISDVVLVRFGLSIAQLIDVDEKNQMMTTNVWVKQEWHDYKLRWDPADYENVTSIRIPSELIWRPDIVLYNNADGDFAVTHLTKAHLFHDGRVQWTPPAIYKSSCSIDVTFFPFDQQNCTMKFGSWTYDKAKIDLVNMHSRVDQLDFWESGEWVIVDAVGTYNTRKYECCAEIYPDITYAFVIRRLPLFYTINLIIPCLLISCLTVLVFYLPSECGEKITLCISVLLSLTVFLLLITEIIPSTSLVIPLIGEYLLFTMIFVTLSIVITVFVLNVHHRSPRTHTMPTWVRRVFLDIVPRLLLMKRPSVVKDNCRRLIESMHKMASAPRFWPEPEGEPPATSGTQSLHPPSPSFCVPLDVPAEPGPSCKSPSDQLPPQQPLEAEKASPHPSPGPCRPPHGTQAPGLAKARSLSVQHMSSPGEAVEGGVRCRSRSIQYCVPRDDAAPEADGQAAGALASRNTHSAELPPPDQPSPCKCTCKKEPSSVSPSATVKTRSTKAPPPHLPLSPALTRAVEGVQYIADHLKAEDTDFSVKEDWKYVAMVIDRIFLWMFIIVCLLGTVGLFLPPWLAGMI
Assay: Inhibition of alpha4 nAChR (unknown origin)
pKi: −log10 of the molar value.
Value type: pKi

INSERT INTO results (smiles_input, reading) VALUES
  ('CN1CCC(S(=O)(=O)c2ccc3nc(NC(=O)NC(=O)c4cc(N5CCOCC5)ccc4Cl)sc3c2)CC1', 7.28);

----------
Assay: Aqueous solubility at pH 7.4 under thermodynamic conditions
Format: physicochemical
Assay conditions: buffer, read-out: Therm_solubility
Reported solubility thermodynamic values follow for various molecules
Value type: solubility thermodynamic (µM)

INSERT INTO assay_data (smiles_input, operator_symbol, reading) VALUES
  ('CN(C)CCCS(=O)(=O)c1ccc2nc(NC(=O)NC(=O)c3ccccc3Cl)sc2c1', '=', 240),
  ('CN1CCN(CCCS(=O)(=O)c2ccc3nc(NC(=O)NC(=O)c4ccccc4Cl)sc3c2)CC1', '=', 280),
  ('CS(=O)(=O)c1ccc2nc(NC(=O)NC(=O)c3ccccc3Cl)sc2c1', '<', 0.47),
  ('CN1CCN(CCS(=O)(=O)c2ccc3nc(NC(=O)NC(=O)c4ccccc4Cl)sc3c2)CC1', '=', 240),
  ('CN1CCC(S(=O)(=O)c2ccc3nc(NC(=O)NC(=O)c4ccccc4Cl)sc3c2)CC1', '=', 69),
  ('COc1ccc2nc(NC(=O)NC(=O)c3ccccc3Cl)sc2c1', '=', 0.78),
  ('CN1CCCN(CCCS(=O)(=O)c2ccc3nc(NC(=O)NC(=O)c4ccccc4Cl)sc3c2)CC1', '=', 340),
  ('CS(=O)(=O)c1ccc2nc(NC(=O)NC(=O)c3ccccc3Cl)oc2c1', '=', 72),
  ('O=C(NC(=O)c1ccccc1Cl)Nc1nc2ccc(S(=O)(=O)CCN3CCCC3)cc2s1', '=', 64),
  ('CC(C)NCCS(=O)(=O)c1ccc2nc(NC(=O)NC(=O)c3ccccc3Cl)sc2c1', '=', 71),
  ('CCN(CC)CCCS(=O)(=O)c1ccc2nc(NC(=O)NC(=O)c3ccccc3Cl)sc2c1', '=', 280),
  ('COCCNCCCS(=O)(=O)c1ccc2nc(NC(=O)NC(=O)c3ccccc3Cl)sc2c1', '=', 87),
  ('CS(=O)(=O)c1ccc2sc(NC(=O)NC(=O)c3ccccc3Cl)nc2c1', '=', 3),
  ('COc1ccc2nc(NC(=O)NC(=O)c3c(Cl)cccc3Cl)sc2c1', '<', 0.71);
